- Test system: blackgrass
- assay-overview: Test B pre/postemergence blackgrass
- Format: in vivo, Alopecurus myosuroides
- condition-description: Preemergence, Rate 250 g/ha; scale 0 to 10, 0 is no effect, 10 is complete control
Strictly below 5 in Blackgrass plant response rating: True. Otherwise: False.

| compound | system-tested | assigned-label |
| --- | --- | --- |
| CC(C)N(C(=O)n1oc(=O)n(Cc2ccco2)c1=O)c1ccc(Cl)cc1 | blackgrass | True |
| CC(C)N(C(=O)n1oc(=O)n(CC2OCCO2)c1=O)c1ccc(F)cc1F | blackgrass | False |
| C=CC(CC)n1c(=O)on(C(=O)N(c2ccccc2)C(C)C)c1=O (centres unmarked) | blackgrass | False |
| CC(C)C(=O)Cn1c(=O)on(C(=O)N(c2ccccc2)C(C)C)c1=O | blackgrass | False |
| CC(C)N(C(=O)n1oc(=O)n([C@@H](C)c2ccccc2)c1=O)c1ccc(F)cc1 | blackgrass | True |
| CC(C)N(C(=O)n1oc(=O)n(C)c1=O)c1ccc(F)cc1 | blackgrass | False |
| CC(C)N(C(=O)n1oc(=O)n(CC=Cc2ccccc2)c1=O)c1ccc(F)cc1 | blackgrass | True |
